Where do these numbers come from? They come from patent US10065990B2.

# System: lncap (prostate cancer cells)
# assay comment: MTT cancer cell growth inhibition
# Format: cell-based
# experimental setup: Homo sapiens, LNCaP, 72 h, MTT, 72 hours; present invention; read-out: GI50 lncap, a
# Excerpt: MTT assay principle is yellow MTT can penetrate membrane into the cell, succinic dehydrogenase of the mitochondria in living cells can make exogenous MTT reduction of insoluble in water of blue-violet acicular formazan for crystallization and deposition in the cell, crystallization can be dissolved dimethyl sulfoxide (DMSO) solution, detected its absorbance at 490 nm/570 nm wavelength by enzyme-linked immunosorbent assay, which can reflect the number of cells. […] e) 570 nm readings. […]
quantity name: GI50 (nM)
Give the value in nM but do not write nM after it.

C/C=C1\NC(=O)c2cccc(n2)CNC(=O)C[C@@H](/C=C/CCSC(=O)CCCCCCC)OC(=O)[C@H](CCSC)NC1=O [Compound 240] :: 70

*Q* Report GI50 for C/C=C1\NC(=O)c2cccc(n2)CNC(=O)C[C@@H](/C=C/CCSC(=O)CCCCCCC)OC(=O)[C@H](CSCC)NC1=O [Compound 242] please.
*A* 170

*Q* Report GI50 for C/C=C1\NC(=O)c2cccc(n2)CNC(=O)C[C@@H](/C=C/CCSC(=O)CCCCCCC)OC(=O)[C@@H](C)NC1=O [Compound 236] please.
*A* 530

*Q* Report GI50 for C=C1NC(=O)c2cccc(n2)CNC(=O)C[C@@H](/C=C/CCSC(=O)CCCCCCC)OC(=O)[C@H](C(C)C)NC1=O [Compound 244] please.
*A* 990

* * *

Listing of entries alongside the reported IC50.
# subject of test: UniProtKB Q96DB2
# Sequence (Q96DB2 whole entry, species assumed): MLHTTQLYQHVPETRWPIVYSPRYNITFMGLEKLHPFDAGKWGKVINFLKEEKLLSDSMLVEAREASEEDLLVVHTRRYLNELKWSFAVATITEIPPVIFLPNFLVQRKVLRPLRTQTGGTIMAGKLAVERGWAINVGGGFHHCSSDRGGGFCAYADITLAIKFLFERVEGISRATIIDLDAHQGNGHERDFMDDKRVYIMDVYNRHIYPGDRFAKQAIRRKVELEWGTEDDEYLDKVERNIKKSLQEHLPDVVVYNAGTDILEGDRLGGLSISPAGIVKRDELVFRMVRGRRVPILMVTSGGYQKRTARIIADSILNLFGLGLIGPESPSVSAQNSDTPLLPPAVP
# assay comment: HDAC biochemical activity measurement (fluorescent substrate deacetylation);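 further: HDAC11 enzyme acting on an acetyl-lysine fluorogenic substrate, then a developer frees the fluorophore, read at excitation 360 nm and emission 460 nm, IC50 over a compound dilution series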
Give the value in nM but do not write nM after it.

*Q* Report IC50 for C/C=C1\NC(=O)c2ccc(SC)c(n2)CNC(=O)C[C@@H](/C=C/CCSC(C)=O)OC(=O)[C@H](CC)NC1=O please.
*A* 92

*Q* Report IC50 for C/C=C1\NC(=O)c2cccc(n2)CNC(=O)C[C@@H](/C=C/CCSC(=O)CCCCC)OC(=O)[C@H](C(C)C)NC1=O please.
*A* 100

*Q* Report IC50 for C/C=C1\NC(=O)c2nc(ccc2F)CNC(=O)C[C@@H](/C=C/CCSC=O)OC(=O)[C@H](C(C)C)NC1=O please.
*A* 103

*Q* Report IC50 for C/C=C1\NC(=O)c2cccc(n2)CNC(=O)C[C@@H](/C=C/CCSC=O)OC(=O)[C@H](C(C)C)NC1=O please.
*A* 97

* * *

# Tested on: MOLT-4 (human acute lymphoblastic leukemia cells)
# assay comment: MTT cancer cell growth inhibition
# Assay type: cell-based
# experimental setup: Homo sapiens, MOLT-4, 72 h, MTT, 72 hours incubation; read-out: GI50 Mol
Listing of entries alongside the reported GI50.
Give the value in nM but do not write nM after it.

Field: example entries. Status: answers known.
C/C=C1\NC(=O)c2nc(ccc2F)CNC(=O)C[C@@H](/C=C/CCSC(=O)CC)OC(=O)[C@H](C(C)C)NC1=O [Example 45] :: 30
C/C=C1\NC(=O)c2nc(F)cc(n2)CNC(=O)C[C@@H](/C=C/CCSC(C)=O)OC(=O)[C@H](C(C)C)NC1=O [Compound 96] :: 30
C/C=C1\NC(=O)c2cc(F)cc(n2)CNC(=O)C[C@@H](/C=C/CCS)OC(=O)[C@H](Cc2ccc(O)cc2)NC1=O [Compound 129] :: 60

From here, focus on the item given below.
*Q* Report GI50 for C/C=C1\NC(=O)c2ccc(F)c(n2)CNC(=O)C[C@@H](/C=C/CCS)OC(=O)[C@H](Cc2ccc(O)cc2)NC1=O [Compound 130] please.
*A* 30

* * *

# Tested on: KBM-5 (human chronic myelogenous leukemia)
# assay comment: MTT cancer cell growth inhibition
# Type: cell-based
# experimental setup: Homo sapiens, KBM5, 72 h, MTT, 72 hours incubation, KBM-5 cells; read-out: GI50 KBM-5
Listing of entries alongside the reported GI50.
Give the value in nM but do not write nM after it.

Field: example entries. Status: answers known.
C/C=C1\NC(=O)c2cccc(n2)CNC(=O)C[C@@H](/C=C/CCSC(=O)CCCCCCC)OC(=O)[C@H](Cc2cccc3ccccc23)NC1=O [Compound 239] :: 29
C/C=C1\NC(=O)c2cccc(n2)CNC(=O)C[C@@H](/C=C/CCSC(=O)CCCCCCC)OC(=O)[C@H](Cc2ccccc2)NC1=O [Compound 14] :: 94
C=C1NC(=O)c2ccc(SC)c(n2)CNC(=O)C[C@@H](/C=C/CCSC(C)=O)OC(=O)[C@H](C(C)C)NC1=O [Compound 206] :: 27
C/C=C1\NC(=O)c2nc(ccc2SC)CNC(=O)C[C@@H](/C=C/CCSC(=O)CCCCCCC)OC(=O)[C@H](Cc2ccccc2)NC1=O [Compound 189] :: 45
C/C=C1\NC(=O)c2cccc(n2)CNC(=O)C[C@@H](/C=C/CCSC(=O)CCCCCCC)OC(=O)CNC1=O [Compound 235] :: 27

From here, focus on the item given below.
*Q* # returns recorded GI50 (system: KBM-5 (human chronic myelogenous leukemia)) for C/C=C1\NC(=O)c2ccc(SC)c(n2)CNC(=O)C[C@@H](/C=C/CCSC(=O)CCCCC)OC(=O)[C@H](C(C)C)NC1=O [Compound 155]
*A* 35

* * *

# Tested on: lncap (prostate cancer cells)
# assay comment: MTT cancer cell growth inhibition
# Assay type: cell-based
# experimental setup: Homo sapiens, LNCaP, 72 h, lncap cells, MTT, 72 hours incubation; read-out: GI50 lnca
Listing of entries alongside the reported GI50.
Give the value in nM but do not write nM after it.

C/C=C1\NC(=O)c2cc(SC)cc(n2)CNC(=O)C[C@@H](/C=C/CCSC(C)=O)OC(=O)[C@H](Cc2ccc(O)cc2)NC1=O :: 20
C/C=C1\NC(=O)c2cccc(n2)CNC(=O)C[C@@H](/C=C/CCSC(=O)CCCCCCC)OC(=O)[C@H](CCSC)NC1=O :: 10
C/C=C1\NC(=O)c2cc(SC)cc(n2)CNC(=O)C[C@@H](/C=C/CCSC(=O)CCCCCCC)OC(=O)[C@H](Cc2ccccc2)NC1=O :: 30
C/C=C1\NC(=O)c2nc(ccc2SC)CNC(=O)C[C@@H](/C=C/CCSC(=O)CC)OC(=O)[C@H](C(C)C)NC1=O :: 50
CSc1cc2nc(c1)C(=O)NC(=C(C)C)C(=O)N[C@@H](C(C)C)C(=O)O[C@H](/C=C/CCSC(C)=O)CC(=O)NC2 :: 30
C/C=C1\NC(=O)c2cccc(n2)CNC(=O)C[C@@H](/C=C/CCSC(=O)CCCCCCC)OC(=O)[C@H](Cc2cccc3ccccc23)NC1=O :: 10
C/C=C1\NC(=O)c2cc(SC)cc(n2)CNC(=O)C[C@@H](/C=C/CCSC(=O)CC)OC(=O)[C@H](C(C)C)NC1=O :: 30
C/C=C1\NC(=O)c2ccc(SC)c(n2)CNC(=O)C[C@@H](/C=C/CCSC(C)=O)OC(=O)[C@H](CCCCN)NC1=O :: 20

*Q* Report GI50 for C/C=C1\NC(=O)c2nc(ccc2SCC)CNC(=O)C[C@@H](/C=C/CCSC(=O)CCCCCCC)OC(=O)[C@H](C(C)C)NC1=O please.
*A* 20

*Q* Report GI50 for C/C=C1\NC(=O)c2nc(ccc2SC)CNC(=O)C[C@@H](/C=C/CCS)OC(=O)[C@H](C)NC1=O please.
*A* 30

* * *

# Tested on: Bel-7402 (human hepatoma cells)
# assay comment: MTT cancer cell growth inhibition
# Format: cell-based
# experimental setup: Homo sapiens, Bel-7402, 72 h, MTT, 72 hours incubation, Bel-7402 cells; read-out: GI50 Bel-7402
quantity name: GI50 (nM)
Give the value in nM but do not write nM after it.

Field: example entries. Status: answers known.
C=C1NC(=O)c2cc(SC)cc(n2)CNC(=O)C[C@@H](/C=C/CCSC(C)=O)OC(=O)[C@H](C(C)C)NC1=O [Compound 205] :: 56
C/C=C1\NC(=O)c2nc(ccc2SC)CNC(=O)C[C@@H](/C=C/CCSC(C)=O)OC(=O)[C@H](CCCCN)NC1=O [Compound 192] :: 54
C=C1NC(=O)c2cc(F)cc(n2)CNC(=O)C[C@@H](/C=C/CCSC(C)=O)OC(=O)[C@H](C)NC1=O [Compound 91] :: 51
C/C=C1\NC(=O)c2ccc(SC)c(n2)CNC(=O)C[C@@H](/C=C/CCSC(=O)CCCCC)OC(=O)[C@H](C(C)C)NC1=O [Compound 155] :: 41
C/C=C1\NC(=O)c2nc(ccc2SC)CNC(=O)C[C@@H](/C=C/CCSC(C)=O)OC(=O)[C@H](CCCCNC(=O)OCC2c3ccccc3-c3ccccc32)NC1=O [Compound 195] :: 54

*Q* Report GI50 for C/C=C1\NC(=O)c2nc(ccc2F)CNC(=O)C[C@@H](/C=C/CCSC(=O)CC)OC(=O)[C@H](C(C)C)NC1=O [Example 45] please.
*A* 61
